B1: glmS ribozyme (parent)
chain: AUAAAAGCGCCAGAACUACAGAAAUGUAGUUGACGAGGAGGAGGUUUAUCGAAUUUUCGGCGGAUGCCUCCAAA

variants of: B1; assay: self-cleavage kobs at 640 uM GlcN6P; higher = faster cleavage; RNA array; details: with glucosamine-6-phosphate
This sample holds only a part of the variants without activity.

Chain sequence	Value qualifier	self-cleavage kobs at 640 uM GlcN6P [s⁻¹]
AUAAAAGCGCCAGAACUACAGAAAUGUAGUUGACGAAGAGGAGGUUUAUCGAAUUUUCGGCGGAGGCCUCCAAA [G37A U65G]	=	4.13e-05
AUAAAAGCGCCAGAGCUACAGAAAUGUAGUUGACGAGGAGGAGGUUUAUCGAAUGUUCGGCGGAUGCCUCGAAA [A15G U55G C71G]	=	0.000408
AUAAAAGCGCCAGAACUAAAGAAAUGUAGUUGUCGAGGAGGAGGUUUAUCGAAUUUUCGGCGGAUGCCUCCAAA [C19A A33U]	=	4.59e-05
AUAAAAGCGCCAUAACUACAGAAAUGUAAUUGUCGAGGAGGAGGUUUAUCGAAUUUUCGGCGGAUGCCUCCAAA [G13U G29A A33U]	<	1e-05
AUAAAAGCGCCAGAACUACAGAAAUGUAGCUGACGAGGAGGACGUUUAUCGAAUUUUCGGCGGAUGCCUCCAAA [U30C G43C]	<	1e-05
AUAAAAGCGCCAGAACUACAGAAAUGUAGUGGACGAGGAGGAGGUUUAUCGAAUUUUCGGCGGACGCCUCCAAA [U31G U65C]	=	4.57e-05
AUAAAAGCGCCAGAACUACAGAAAUGUAGUUGACGAGGAGGAGGUUUAUGGAAUUUUCGGCGGAUGCAUCCAAA [C50G C68A]	=	0.000137
AUAAAAGCGGCAGAACUACAGAAAUGUAGUUCACGAGGAGGAGGUUUAUCGAAUUUUCGGCGGAUGCCUCCAAA [C10G G32C]	<	1e-05
AUAAAAGCGCCAGAACUACAGAAAUGUAGUUGACUAGGAGGAGGUUUUUCGAAUUUUCGGCGGAUGCCUCCAAA [G35U A48U]	<	1e-05
AUAAAAGCGCCAGAAUUACAGAAAUGUAGUUGACGAGGGGGAGGUUUAUCGAAUCUUCGGCGGAUGCCUCCAAA [C16U A39G U55C]	=	0.0143
AUAAAAACGCGAGACCUACAGAAAUGUAGUUGACGAGGAGGAGGUUUAUAGAACUUUCGGCGGAUGCCUCCAAA [G7A C11G A15C C50A U54C]	<	1e-05
AUAAAAGCGCCAGAAGUACAGAAAUGUAGUUGACGAGGAGGAGGUGUAUCGAAUUUUCGGCGGAUGCCUCCAAA [C16G U46G]	=	0.000167
AUAAAAGCGCCGGAACUACAGAAAUGUAGUUGACGAGGAGGAGGUAUAUCGAAUUUUCGGCGGAUGCCUCCAAA [A12G U46A]	=	6e-05
AUAAAAGCGCCAGAACUACAGAAAUGUAGUUGACGAGGAGGAGGUGUAUCGAAUUUUCGGCGGAUGCGUCCAAA [U46G C68G]	=	5.11e-05
AUAAAAGCGCCAGAAGUACAGAAAUGUAGUUGACGAGGAGGAGGCUUAUCGAAUUUUCGGCGGAUGCCUCCAAA [C16G U45C]	=	7.2e-05
AUAAAAGCGCCAGACCUACAGAAAUGUAGUUGACGAGGAGGAGUUUUAUCGAAUUUUCGGGGGAUGGCUCCAAA [A15C G44U C61G C67G]	<	1e-05
AUAAAAGCGCCAGAACUACAGAAAUGUAUUUGACGAGGAGGAGGUUUAUCGAAUUUUCGGCGGAUGACACCAAA [G29U C67A U69A]	=	5.78e-05
AUAAAAGCGCCAGAACUACAGAAAUGUAUUUGACCAGGAGGAGGUUUAUCGGAUUUUCGGCGGAUGCCUCCAAA [G29U G35C A52G]	<	1e-05
AUAAAGGUGCCAGAACUACAGAAAUGUAGUUGACGAGGAGGAGGUUUAUCGAAGUUUCGGCGGAUGCGUCCAAA [A6G C8U U54G C68G]	=	0.000705
AUAAAAGCGCCAGAACUACAGAAAUGUAGUUGACGAGGACGAGGUUUAUCGAAUUUUCGGCGGAUGCCUCAAAA [G40C C71A]	=	0.00213
AUAAAAGCGCCAGAAAUACAGAAAUGUAGUUGAUGAGGAGGAGGUUUAUCGAAUUUUCGGCGGAUGCCUCCAAA [C16A C34U]	<	1e-05
AUAAAAGCGCCAGAACUACAGAAAUGUAGUUGACGAGGCGGAGGUAUAUCGAAUUUUCGGCGGAUGCCUCCAAA [A39C U46A]	=	5.57e-05
AUAAAAGCGCCAGAACUACAGAAAUGUAGUUGACGAGGAGGAGGUUUAUCGAAUUUUAGGCGGAUGCCCCCAAA [C58A U69C]	=	4.91e-05
AUAAAAGCGCCAGAACUACAGAAAUGUAGUUGACGAAGAGGAGGUUUAUCGAGUUUUCGGCGGGUGCCUCCAAA [G37A A53G A64G]	=	0.000552
AUAAAAGCGCCAGAACUACAGAAAUGUAGUUGACGAGGAGGAGGUUUAUCGAAUGUUCGGCGGAUGCCACCAAA [U55G U69A]	=	0.00015
AUAAAAGCGCCAGAACUACAGAAAUGUAGGUGACGAGGAGGAGGUUUAUCGAAUUUUCGGCGGAUGACUUCAAA [U30G C67A C70U]	=	0.00027
AUAAAAGCGCCAGAACUACAGAAAUGUAGUGGACGAGGAGGAGGGUUAUCGAAUUUUCGGCGGAUGCCUCCAAA [U31G U45G]	=	0.000405
AUAAACGCGCCAGAACUACAGAAAUGUAGUUGACGAUGAGGAGGUUUAACGAAUUUUCGGCGGAUGCCUCCAAA [A6C G37U U49A]	<	1e-05
AUAAAAGCGCCAGAACUACAGAAAUGUAGUUGACUAGGAGGAGGUUUAUCGAAUUUUCGGCGUAUGCCUCCAAA [G35U G63U]	<	1e-05
AUAAAAGCGCCAGGACUACAGAAAUGUAGAUGACGUGGAGGAGGUUUAUCGAAUUUUUGGCGGAUUCCUCCAAA [A14G U30A A36U C58U G66U]	<	1e-05
AUAAAAGCGCCAGAACUACAGAAAUGUAGUUGGCGUGGAGGAGGUUUAUCGAAUUUUCGGCGGAUGCCUGCAAA [A33G A36U C70G]	=	0.000157
AUAAAAGCGCCAGAACUACAGAAAUGUAGUUGACGAGGAGGAGGUGUAUCGACUUUUCGGCGGAUGUCUCCAAA [U46G A53C C67U]	=	7.34e-05
AUAAAAGCGCCGGAACUACAGAAAUGUAGUUGACGAGGAGGAGGUUUAUCGAAUUUUCGGCGGAUCCCUCCAAA [A12G G66C]	=	4.42e-05
AUAAAAUCGCCAGAACUACAGAAAUGUAGCUGACGAGGAGGAGGUUUAUCGAAUUUUCGGAGGAUGCCUCCAAA [G7U U30C C61A]	<	1e-05
AUAAAAGCGCCAGAACUACAGAAAUGUAGUUGACGAGGAGGAGGUUUAUCGAAUUUUCGGCAGAUGCCGCCAAA [G62A U69G]	=	3.57e-05
AUAAAAGCGCCACAACUACAGAAAUGUAGUUGAAGAGGAGGAGGUUUAUCGAAUUUUCGGCGGAUGCCUCCAAA [G13C C34A]	<	1e-05
AUAAAAGCGCCAGAACUACAGAAAUGUAGUUGACGAGGAGGAGGUUUUUCGAAUUUUCGGCGGAUGCCUCUAAA [A48U C71U]	=	0.000153
AUAAAGGCGCCAGAACUACAGAAAUGUAGUUGACGGGGAGGAGGUUUAUCGAAUUAUCGGCGGAUGCCUCCAAA [A6G A36G U56A]	<	1e-05
AUAAAAGCCCCAGAACUACAGAAAUGUAAUUAACGAGGAGGAGGUUUAUCGAAUUUUCGGCGGAUGCCUCCAAA [G9C G29A G32A]	<	1e-05
AUAAAAGCGGCAGGACUACAGAAAUGUAGUAGAUGAGGAGGAGGUUUAUCCAUCUUUCGGCGGAUUCCUCCAAA [C10G A14G U31A C34U G51C A53U U54C G66U]	<	1e-05
AUAAAAGCGCCAGAACUACAGAAAUGUAGUUGACCAGGCGGACGUUUAUCGAAUUAUCGGCGGAUGCCUCCAAA [G35C A39C G43C U56A]	<	1e-05
AUAAAAACGCCAGAACUACAGAAAUGUAGUUGACGAGGAGGACGUUUAUCGAAUUUUCGGCGGAUGCCUCUAAA [G7A G43C C71U]	<	1e-05
AUAAAAUCGCCAGAACUACAGAAAUGUAGUUGACGAGGAGGAGGUUUAUCGCAUUUUCGGCGGAUGCCUCCAAA [G7U A52C]	<	1e-05
AUAAAAGCGCCGGAACUACAGAAAUGUAGUUGACGAGGAGGAGGUUUAUCGAAUUUUCGGCGGAUACCUCCAAA [A12G G66A]	=	0.000105
AUAAAAGCGCCAGAAUUACAGAAAUGUAGUUGACGAGGAGGAGGUUUAUCGAAUUUUCGUGGGAUGCCUCCAAA [C16U G60U C61G]	<	1e-05
AUAAAAGCGCCAGAACUACAGAAAUGUAGUUGACGAGGAGGAGGUUUAUCGAAUUUUCGGAGGAUGUCUCCAAA [C61A C67U]	=	6.41e-05
